From: BindingDB's records for patent US11584735

- Target: Serine protease 1 (Homo sapiens)
- Sequence (P07477 whole entry): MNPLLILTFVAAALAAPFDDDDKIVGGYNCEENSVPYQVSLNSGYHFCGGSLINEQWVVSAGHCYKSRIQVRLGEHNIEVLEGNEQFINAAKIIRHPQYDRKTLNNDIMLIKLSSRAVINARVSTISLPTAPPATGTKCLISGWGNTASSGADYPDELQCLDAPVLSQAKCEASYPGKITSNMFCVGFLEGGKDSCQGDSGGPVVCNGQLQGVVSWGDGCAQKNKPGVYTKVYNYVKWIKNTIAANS
pIC50: −log10 of the molar value.
Outcome measure: pIC50

                                   compound  outcome_measure  result
0  COCc1nn(Cc2ccc(Cn3cc(F)ccc3=O)cc2)cc1C(=O)NCc1nccc(OC)c1F [US11584735, Compound of Formula A]            pIC50  < 4.40
